Measured Normal melting temperature accompanies every entry in the list below.
- CONDITION_NOTES: Crystal; DTA
Provide only the numeric value, understood in °C.

The following compounds have reported results that may help.
COMPOUND	RESULT_UNIT	Normal melting temperature
O=[N+]([O-])c1ccccc1Nc1ccccc1 [2-nitrodiphenylamine]	°C	74.79
O=[N+]([O-])c1ccccc1Nc1ccccc1[N+](=O)[O-] [bis(2-nitrophenyl)amine]	°C	172.30
c1ccc(Nc2ccccc2)cc1 [diphenylamine]	°C	53.50
CCN(C(=O)N(CC)c1ccccc1)c1ccccc1 [1,3-diethyl-1,3-diphenylurea]	°C	71.87

Here is another compound to look at.
# Normal melting temperature of CCN(N=O)c1ccc([N+](=O)[O-])cc1 [N-nitroso-N-ethyl-4-nitroaniline] = 118.60

* * *

- ASSAY_METHOD_TEXT: Molar enthalpy of transition or fusion
- CONDITION_NOTES: Crystal; DSC
PROPERTY_MEASURED: Molar enthalpy of transition or fusion (kcal/mol)
Provide only the numeric value, understood in kcal/mol.

The following compounds have reported results that may help.
SMILES_CODE	PROPERTY_MEASURED	OBSERVED
O=[N+]([O-])c1ccccc1Nc1ccccc1	Molar enthalpy of transition or fusion	6.25
c1ccc(Nc2ccccc2)cc1	Molar enthalpy of transition or fusion	4.7
O=[N+]([O-])c1ccccc1Nc1ccccc1[N+](=O)[O-]	Molar enthalpy of transition or fusion	4.39
CCN(N=O)c1ccc([N+](=O)[O-])cc1	Molar enthalpy of transition or fusion	7.45

Here is another compound to look at.
# Molar enthalpy of transition or fusion of "CCN(C(=O)N(CC)c1ccccc1)c1ccccc1" = 8.02
